- assay: Viability qHTS for spleen associated tyrosine kinase inhibitor (SYKi) naive MV4-11 cells (AID 1963823); also: nearly all actives have a fitted effect of over 40% in size
- test conditions: MV4-11 AML viability, CellTiter-Glo luminescence, 72 h; series mostly up to 45 µM
Inconclusive results are not listed. Active and inactive are the calls of the source. Calls follow the shape of the dose curve; as a rule, active = well fitted cell-killing curve with a large enough effect; inconclusive = small, poorly fitted or top-dose-only effect, or effect the other way; inactive = no such curve, though single readings can be large or run the other way.
Your answer must be one of the following: active, inactive

Solved entries:
{"compound": "CC1=C2C(=O)C=C(CO[C@@H]3O[C@H](CO)[C@@H](O)[C@H](O)[C@H]3O)[C@@H]2[C@H]2OC(=O)[C@H](C)[C@@H]2[C@@H](O)C1", "group label": "inactive"}
{"compound": "CCC(C)C1NC(=O)C(Cc2ccccc2)NC(=O)C(CCCCCC(=O)C(O)CO)NC(=O)C2CCCCN2C1=O (stereo unspecified)", "group label": "active"}
{"compound": "COc1cc2c(cc1OC)C(C(C(=O)N(CCc1ccc(OC)c(OC)c1OC)CCc1ccc(OC)c(OC)c1OC)c1ccccc1)=NCC2 (stereo unspecified)", "group label": "active"}

stdin: What outcome does the record of this test show for CCCCCCCC/C=C\CCCCCCCCN ?
stdout: inactive

stdin: What outcome does the record of this test show for C[C@H](NC(=O)[C@@H](O)c1cc(F)cc(F)c1)C(=O)N[C@@H]1C(=O)N(C)c2ccccc2-c2ccccc21 ?
stdout: inactive

stdin: What outcome does the record of this test show for CC(=O)OCC(=O)[C@@]1(O)[C@H](OC(C)=O)C[C@H]2[C@@H]3CCC4=CC(=O)C=C[C@]4(C)[C@@]3(F)[C@@H](O)C[C@@]21C ?
stdout: inactive

stdin: What outcome does the record of this test show for CC(CCc1ccccn1)(CCc1ccccn1)C(=O)c1ccccc1 ?
stdout: inactive

stdin: What outcome does the record of this test show for Cc1ccc(C(=O)c2cc(O)c(O)c([N+](=O)[O-])c2)cc1 ?
stdout: active

stdin: What outcome does the record of this test show for COC(=O)CCCCC(CCSS/C(CCO)=C(\C)N(C=O)Cc1cnc(C)nc1N)SC(C)=O (stereo unspecified) ?
stdout: inactive

stdin: What outcome does the record of this test show for C[C@@H](Oc1cc(-n2cnc3ccc(CN4CCN(C)CC4)cc32)sc1C(N)=O)c1ccccc1C(F)(F)F ?
stdout: active
